- MEASURED_TARGET: purified recombinant human PARP (Homo sapiens, UniProt P09874)
- Construct: purchased Trevigan (Gaithersburg, Md.)
- Sequence (P09874 whole entry): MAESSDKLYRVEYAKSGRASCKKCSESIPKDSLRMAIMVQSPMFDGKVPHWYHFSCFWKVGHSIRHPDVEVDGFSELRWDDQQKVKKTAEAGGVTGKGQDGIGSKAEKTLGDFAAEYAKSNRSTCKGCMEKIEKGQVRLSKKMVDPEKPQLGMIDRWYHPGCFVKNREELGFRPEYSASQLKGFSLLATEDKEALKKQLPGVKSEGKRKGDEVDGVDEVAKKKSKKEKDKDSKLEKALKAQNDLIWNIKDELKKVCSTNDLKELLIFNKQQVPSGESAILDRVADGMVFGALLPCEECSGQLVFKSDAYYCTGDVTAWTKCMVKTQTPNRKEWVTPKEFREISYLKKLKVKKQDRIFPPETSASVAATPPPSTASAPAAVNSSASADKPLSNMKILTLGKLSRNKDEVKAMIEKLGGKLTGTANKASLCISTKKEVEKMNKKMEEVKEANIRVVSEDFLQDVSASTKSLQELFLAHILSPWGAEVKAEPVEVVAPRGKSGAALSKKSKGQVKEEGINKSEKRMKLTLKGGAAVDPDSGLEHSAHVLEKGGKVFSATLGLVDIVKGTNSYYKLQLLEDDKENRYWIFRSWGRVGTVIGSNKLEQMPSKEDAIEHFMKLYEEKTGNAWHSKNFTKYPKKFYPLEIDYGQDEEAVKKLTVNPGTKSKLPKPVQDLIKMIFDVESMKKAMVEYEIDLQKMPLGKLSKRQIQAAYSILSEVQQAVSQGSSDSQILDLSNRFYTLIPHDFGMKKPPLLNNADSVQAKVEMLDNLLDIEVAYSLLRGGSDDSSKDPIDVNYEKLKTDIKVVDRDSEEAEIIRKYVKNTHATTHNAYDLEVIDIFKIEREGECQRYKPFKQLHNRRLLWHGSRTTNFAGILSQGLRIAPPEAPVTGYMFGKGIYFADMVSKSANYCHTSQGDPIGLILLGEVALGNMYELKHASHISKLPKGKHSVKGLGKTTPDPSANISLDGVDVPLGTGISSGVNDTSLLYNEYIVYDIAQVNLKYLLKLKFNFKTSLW
- ASSAY_COMMENT: PARP enzyme assay (IC50)
- Assay type: biochemical
- CONDITION_LABEL: Table I; approximate values
pIC50: −log10 of the molar value.
PARAMETER_MEASURED: pIC50

Below: 5 compounds and their reported pIC50.
ENTRY_SMILES: NNC(=O)C1=CNc2c(Cl)ccc3c(=O)[nH]nc1c23
pIC50: 6.13
--
ENTRY_SMILES: O=c1[nH]nc2c3c(cccc13)NC(CO)=N2
pIC50: 7.59
--
ENTRY_SMILES: NNC(=O)C1=Cc2n[nH]c(=O)c3cccc(c23)N1
pIC50: 7.59
--
ENTRY_SMILES: CN(C)CC1=Nc2n[nH]c(=O)c3cccc(c23)N1
pIC50: 7.72
--
ENTRY_SMILES: O=c1[nH]nc2c3c(cccc13)NC(CN1CCCCC1)=N2
pIC50: 7.72

[I] NC1=Nc2n[nH]c(=O)c3cccc(c23)N1
[II] O=C(O)C1=Cc2n[nH]c(=O)c3cccc(c23)N1
[III] O=c1[nH]nc2c3c(cccc13)NC(CN1CCCC1)=N2
[IV] O=c1[nH]nc2c3c(cccc13)NC=N2
[V] NNC(=O)C1=Cc2n[nH]c(=O)c3ccc(NN)c(c23)N1
Ask: Please put the entries in order of rising pIC50. Show the ranking through the labels, in the order asked for.
Reply: V, II, I, IV, III
(V: 5.55, II: 6.80, I: 7.04, IV: 7.41, III: 7.74)

[a] O=c1[nH]nc2c3c(cccc13)NC(CNCCCc1ccccc1)=N2
[b] O=c1[nH]nc2c3c(cccc13)N=C(CN1CCOCC1)N2
Ask: Short answer wanted: higher pIC50, a or b ? Give the chosen item's label as your response.
Reply: b
(b: 7.74, a: 7.06)

Numbers sourced from patent US20120309717A1.
